Biological target: Glutamate receptor ionotropic, AMPA (Rattus norvegicus, UniProt P19490+P19491+P19492+P19493)
Assay: Compound was tested for its ability to displace [3H]-AMPA from AMPA receptor
Assay type: protein-complex assay
READOUT_KIND: Ki (µM)

O=[N+]([O-])c1cc2nc(O)c3nncn3c2cc1[N+](=O)[O-]	5.49
